SYSTEM: HIV-1 protease (Human immunodeficiency virus type 1 group M subtype B)
TEST_DESCRIPTION: biochemical
REPORTED_CONDITIONS: read-out: HIV-1 Protease % Inhib, dose 30.000 uM
QUANTITY_MEASURED: inhibition at 30 µM
State the result as a value with its unit after it.

Below: 5 molecules and their reported inhibition at 30 µM.
O=c1oc2c(c(O)c1C(c1cccc(NS(=O)(=O)c3ccccc3)c1)C1CC1)CCCCCC2 (centres unmarked)	101%
O=c1oc2c(c(O)c1C(c1cccc(NS(=O)(=O)c3cccc(S(=O)(=O)N(Cc4ccccc4)Cc4ccccc4)c3)c1)C1CC1)CCCCCC2 (centres unmarked)	92.7%
C[C@@H](NC(=O)OC(C)(C)C)C(=O)Nc1cccc(C(c2c(O)c3c(oc2=O)CCCCCC3)C2CC2)c1 (some centres unmarked)	94.3%
CC(C)CCC1CCCCCc2c1oc(=O)c(C(c1ccccc1)C1CC1)c2O (centres unmarked)	103%
O=c1oc2c(c(O)c1C(c1cccc(NS(=O)(=O)c3ccc(-c4ccccn4)s3)c1)C1CC1)CCCCCC2 (centres unmarked)	102%

Query (molecule): CC1(C)C2CCC1(CS(=O)(=O)Nc1cccc(C(c3c(O)c4c(oc3=O)CCCCCC4)C3CC3)c1)C(=O)C2 (centres unmarked) ; field requested: inhibition at 30 µM
110%

Query (molecule): O=c1oc2c(c(O)c1C(c1cccc(NS(=O)(=O)c3cccc(C(F)(F)F)c3)c1)C1CC1)CCCCCC2 (centres unmarked) ; field requested: inhibition at 30 µM
114%

Query (molecule): COC(=O)c1cccc(S(=O)(=O)Nc2cccc(C(c3c(O)c4c(oc3=O)CCCCCC4)C3CC3)c2)c1 (centres unmarked) ; field requested: inhibition at 30 µM
108%

Query (molecule): CC(C)CC1CCCCCc2c1oc(=O)c(C(c1ccccc1)C1CC1)c2O (centres unmarked) ; field requested: inhibition at 30 µM
106%

Query (molecule): O=C(COCc1ccccc1)Nc1cccc(S(=O)(=O)Nc2cccc(C(c3c(O)c4c(oc3=O)CCCCCC4)C3CC3)c2)c1 (centres unmarked) ; field requested: inhibition at 30 µM
107%

Query (molecule): N#Cc1ccc(S(=O)(=O)Nc2cccc(C(c3c(O)c4c(oc3=O)CCCCCC4)C3CC3)c2)cc1 (centres unmarked) ; field requested: inhibition at 30 µM
115%

Query (molecule): CCCC(c1cccc(NS(=O)(=O)c2cccc3cccnc23)c1)c1c(O)c2c(oc1=O)CCCCCC2 (centres unmarked) ; field requested: inhibition at 30 µM
98%

Query (molecule): O=c1oc2c(c(O)c1C(c1cccc(NS(=O)(=O)c3ccc(NO)cc3)c1)C1CC1)CCCCCC2 (centres unmarked) [Example 348 (Second Title Compound)] ; field requested: inhibition at 30 µM
98.7%

Query (molecule): O=c1oc2c(c(O)c1C(c1cccc(NS(=O)(=O)c3cccc(S(=O)(=O)N4CCOCC4)c3)c1)C1CC1)CCCCCC2 (centres unmarked) ; field requested: inhibition at 30 µM
106%
